pKd: −log10 of the molar value.
Parameter pKd, tested on CypD (Homo sapiens, UniProt P30405), listed per item.
Sequence (P30405 30-207): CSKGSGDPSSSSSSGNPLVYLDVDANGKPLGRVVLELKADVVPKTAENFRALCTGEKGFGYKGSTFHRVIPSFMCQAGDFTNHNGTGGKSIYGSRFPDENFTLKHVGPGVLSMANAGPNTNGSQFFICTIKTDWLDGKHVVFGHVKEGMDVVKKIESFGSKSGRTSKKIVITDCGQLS

Some solved entries appear below for comparison.
compound: CCN1Cc2cc(CCC(=O)NCC(=O)N3CCCC3c3ccccc3C(F)(F)F)ccc2NCCC1=O (stereo not drawn)
result: 4.00 to 6.00
--
compound: CCn1nnc(CNC(=O)NCc2ccc3c(c2)[C@H]2C[C@@H](N3)[C@H](O)CO2)n1
result: 4.00 to 6.00

With those in mind, consider the next compound.
Qu. Item under review: CSc1ccccc1[C@H]1CCCN1C(=O)CNC(=O)NC(C)c1ccc2c(c1)CCCC(=O)N2 (stereo partly drawn) . Reported pKd?
Ans. 4.00 to 6.00
